Kindly state Mean of CFU Formation for each of the entries shown.
# Test system: bone marrow cells
# measurement.protocol: In vivo bone marrow CFU formation and bone marrow cellularity, dose dependent effect
# Set-up: species or system C57BL/6 mice
# settings: Expt. 1; 5 μg twice daily i.p., 4 days
Write the numeric value and follow it with the unit.

Reference set, count: 3
O=C(O[C@@H]1CN2CCC[C@@H](O)[C@@H]2[C@@H]1O)c1ccc([N+](=O)[O-])cc1 ... 213 CFU
CCCCCCCC(=O)O[C@@H]1CN2CCC[C@@H](O)[C@@H]2[C@@H]1O ... 200 CFU
O[C@@H]1[C@H](O)[C@H](O)CN2C[C@@H](O)[C@@H](O)[C@@H]12 ... 291 CFU

Parameters: items (list). Returns: Mean of CFU Formation for each item.
1. Cc1ccc(C(=O)O[C@@H]2CN3CCC[C@@H](O)[C@@H]3[C@@H]2O)cc1
2. O=C(O[C@@H]1CN2CCC[C@@H](O)[C@@H]2[C@@H]1O)c1ccccc1

1. 195 CFU
2. 200 CFU

* * *

# tgt: Jack Bean alpha-mannosidase (Canavalia ensiformis)
# Sequence (C0HJB3 whole entry): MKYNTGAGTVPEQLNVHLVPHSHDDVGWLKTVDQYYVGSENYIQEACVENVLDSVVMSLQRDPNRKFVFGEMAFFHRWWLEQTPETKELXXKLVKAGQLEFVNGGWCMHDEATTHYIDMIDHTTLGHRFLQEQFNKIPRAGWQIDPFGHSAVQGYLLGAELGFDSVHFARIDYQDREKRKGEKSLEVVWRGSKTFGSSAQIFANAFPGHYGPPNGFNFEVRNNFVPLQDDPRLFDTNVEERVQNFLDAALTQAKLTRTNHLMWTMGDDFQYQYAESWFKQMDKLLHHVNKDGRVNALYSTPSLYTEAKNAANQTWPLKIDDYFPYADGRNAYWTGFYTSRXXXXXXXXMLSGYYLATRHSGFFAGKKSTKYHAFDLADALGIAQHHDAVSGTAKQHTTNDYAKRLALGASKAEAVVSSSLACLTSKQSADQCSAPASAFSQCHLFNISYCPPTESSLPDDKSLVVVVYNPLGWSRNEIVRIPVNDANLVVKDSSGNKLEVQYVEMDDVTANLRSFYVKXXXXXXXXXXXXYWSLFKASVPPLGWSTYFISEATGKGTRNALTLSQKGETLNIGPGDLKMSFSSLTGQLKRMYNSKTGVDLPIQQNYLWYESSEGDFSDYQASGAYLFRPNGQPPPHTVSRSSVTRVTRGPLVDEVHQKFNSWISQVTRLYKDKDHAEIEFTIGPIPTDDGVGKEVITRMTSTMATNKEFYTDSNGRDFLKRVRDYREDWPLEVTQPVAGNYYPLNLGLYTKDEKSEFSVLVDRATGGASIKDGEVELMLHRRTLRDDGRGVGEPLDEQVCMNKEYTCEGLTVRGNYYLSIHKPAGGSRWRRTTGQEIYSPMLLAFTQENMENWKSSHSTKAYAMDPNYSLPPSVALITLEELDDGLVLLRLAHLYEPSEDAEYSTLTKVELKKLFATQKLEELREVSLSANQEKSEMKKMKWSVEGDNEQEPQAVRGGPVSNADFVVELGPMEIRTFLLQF
# measurement.protocol: Jack Bean alpha-mannosidase assay
# Assay type: biochemical
# settings: pH 6.0, 37° C., 30 minutes, p-nitrophenyl-alpha-D-mannopyranoside substrate; read-out: D50 Values (Inhibition), J.B. mannosidase (converted)
quantity.name: IC50 (µM)
One number for each entry, in µM.

Reference set, count: 5
CCCCCCCC(=O)O[C@@H]1CN2CCC[C@@H](O)[C@@H]2[C@@H]1O [Compound 6] ... 117
O=C(O[C@@H]1CN2CCC[C@@H](O)[C@@H]2[C@@H]1O)c1ccc([N+](=O)[O-])cc1 [Compound 42] ... 109
O=C1N[C@@H]2[C@@H](O)[C@@H](O)[C@H](O)[C@@H](CO)N2C1=O [Kefunensine, reference compound] ... 151
Cc1ccc(C(=O)O[C@@H]2CN3CCC[C@@H](O)[C@@H]3[C@@H]2O)cc1 [Compound 41] ... 343
CCCC(=O)O[C@@H]1CN2CCC[C@@H](O)[C@@H]2[C@@H]1O [Compound 3] ... 144

Parameters: items (list). Returns: IC50 for each item.
1. O=C(O[C@@H]1CN2CCC[C@@H](O)[C@@H]2[C@@H]1O)c1ccccc1 [Compound 5]
2. CCOC1CC(=O)N2C[C@@H](O)[C@@H](O)[C@H]2[C@@H]1O (stereo partly shown) [Compound 23]

252
43.2

* * *

# Tested on: N-linked oligosaccharide processing
# measurement.protocol: L-PHA lectin sensitivity assay for inhibition of N-linked oligosaccharide processing
# Format: cell-based
# settings: L-PHA assay; 3H-thymidine incorporation; read-out: D50 Values (Inhibition), L-PHA assay
Kindly state IC50 for each of the entries shown.
Answers are plain numbers, in µg/mL.

Cc1ccc(C(=O)O[C@@H]2CN3CCC[C@@H](O)[C@@H]3[C@@H]2O)cc1 [Compound 41] ... 1
O[C@H]1[C@H]2[C@H](O)CCCN2C[C@H]1O [swainsonine, reference compound] ... 0.033
O=C(O[C@@H]1CN2CCC[C@@H](O)[C@@H]2[C@@H]1O)c1ccccc1 [Compound 5] ... 0.5

Switching to the query record.
I am curious: what IC50 value has been reported for O=C1N[C@@H]2[C@@H](O)[C@@H](O)[C@H](O)[C@@H](CO)N2C1=O [Kefunensine, reference compound] ?
1
